studyTarget: T1, full length cynomolgus APLNR (cynomolgus monkey (Macaca fascicularis), UniProt O97666 1-380 (rhesus entry))
T1 construct: Stably expressed on HEK293/CRE-luc/MfAPLNR cells; also called MfAPLNR; mfAPLNR
T1 sequence: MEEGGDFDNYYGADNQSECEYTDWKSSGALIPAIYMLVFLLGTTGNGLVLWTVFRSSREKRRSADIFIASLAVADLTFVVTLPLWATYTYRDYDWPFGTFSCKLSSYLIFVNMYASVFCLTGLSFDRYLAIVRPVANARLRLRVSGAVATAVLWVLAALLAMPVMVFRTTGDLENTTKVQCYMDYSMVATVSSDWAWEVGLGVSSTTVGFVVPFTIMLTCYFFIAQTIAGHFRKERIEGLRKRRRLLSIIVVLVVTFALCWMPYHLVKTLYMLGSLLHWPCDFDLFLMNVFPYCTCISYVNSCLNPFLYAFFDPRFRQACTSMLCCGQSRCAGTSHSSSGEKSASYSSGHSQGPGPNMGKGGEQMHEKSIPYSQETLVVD
protocol: FACS, 10 µg/mL antibody, HEK293/CRE-luc/MfAPLNR cells
Form field: Binding Ratio of Geom. Mean to Unstained Cells (one value per entry).

binder: H4H9101P (antibody, V domains shown, Fully human, human IgG4 Fc) VH: QVQLVQSGAEVKKPGASVEVSCKASGYTFTDYYIHWIRQAPGQGLEWMGWINPDSGRTNYAQKFQVRVTMTRDTSITTAYMELNRLKSDDTAVYYCARGPLRGYSGYDFFDYWGQGTLVTVSS VL: DIQLTQSPSFLSASVGDRVTITCWASQGISSYLAWYQQKPGKAPKLLIYAASTLQSGVPSRFSGSGSGTEFTLTISSLQPEDFASYFCQQLNSNPRTFGQGTKVEIK
observedValue: 2 fold
//
binder: H4H9104P (antibody, V domains shown, Fully human, human IgG4 Fc) VH: QVQLVESGGDLVKPGGSLRLSCAASGFTFSDYYMNWIRQAPGKGLEWVSYISSSGSTIHYADSVKGRFTISRDNAKNLVYLRMNSLRAEDTAVYFCAREREVHDYSDPYFFFYGMDVWGQGTTVTVSS VL: DIQMTQSPSSVSASVGDRVTITCRASQDVSSWLAWYQHKPGKAPKLLIFAASSLQSGVPSRFSGSGSGTDFTLTISSLQSEDFATYYCQQANSFPLTFGGGTKVEIK
observedValue: 1 fold
//
binder: H4H9112P (antibody, V domains shown, Fully human, human IgG4 Fc) VH: QVQLVQSGAEVKKPGASVEVSCKASGYTFTDYYIHWIRQAPGQGLEWMGWINPDSGRTNYAQKFQVRVTMTRDTSITTAYMELNRLKSDDTAVYYCARGPLRGYSGYDFFDYWGQGTLVTVSS VL: DIQMTQSPSSLSAFVGDRVTITCRASQSISSYLNWYQQKPGKAPKLLIYTASTLQRGVPSRFRGSGSGTDFTLTISSLQPEDFATYYCHQTYSIPITFGQGTRLEIK
observedValue: 2 fold
//
binder: H4H9113P (antibody, V domains shown, Fully human, human IgG4 Fc) VH: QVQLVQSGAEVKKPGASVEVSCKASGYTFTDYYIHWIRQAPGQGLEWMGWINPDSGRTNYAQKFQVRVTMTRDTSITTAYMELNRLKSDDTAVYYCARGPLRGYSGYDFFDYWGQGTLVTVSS VL: DIQMTQSPSSLSASVGDRVTITCRASQGIRNDLGWYQQKPGKAPNRLIYAASSLQSGVPSRFSGSGSGTEFTLTISSLHPEDFATYSCLQHNSFPLTFGGGTKVEIK
observedValue: 1 fold

Query binder follows.
Enquiry: State its Binding Ratio of Geom. Mean to Unstained Cells for this binder: H4H9103P (antibody, V domains shown, Fully human, human IgG4 Fc) VH: EVQLVESGGGLVQPGRSLRLSCAASGFTFDDYAMHWVRQVPGKGLEWVSGITWNSGDIGYADSVKGRFTISRDNAKNSLYLQMNSLRAEDTALYYCTKDKDSSGYYGIDVWGQGTTVTVSS VL: DIQMTQSPSSVSASVGDRVTITCRASQGIRTWLAWYQQKPGKAPKLLIYAASSLQSGVPSRFSGSESGTDFTLTISSLQPEDFATYYCQQANSFPFTFGPGTKVDIK
Return: 2 fold
